Each recorded value in this set is attributed to PubChem BioAssay (NCI).

# System: RPMI-8226 leukemia
# Measurement Description: NCI tumour cell line growth inhibition, 48 h
Where a SMILES comes first, the peptide text is derived from it. The star is where a group is joined. Boc = CC(C)(C)OC(=O)*; OSu = O=C1CCC(=O)N1O*
Assay Readout: TGI

{"columns": ["Molecule", "Study System", "Observed Measurement"],
 "data": [
  ["Cc1ccc(S(=O)(=O)N/N=C(\\c2nc3ccc(Cl)cc3[nH]c2=O)C(O)c2cccc([N+](=O)[O-])c2)cc1 (stereo not drawn)", "RPMI-8226 leukemia", "> 100 µM"],
  ["COC(=O)NCCc1[nH]nc2c1C(=O)C=C(N1CCOCC1)C2=O", "RPMI-8226 leukemia", "> 100 µM"],
  ["Cc1[nH]c2ccccc2c1C(=O)CC1(O)C(=O)Nc2ccccc21 (stereo not drawn)", "RPMI-8226 leukemia", "> 100 µM"],
  ["CCOC(=O)C1N(S(=O)(=O)c2ccc(C)cc2)CCC12c1ccccc1N(C(C)=O)C2c1ccc(OC)c(OC)c1 (stereo not drawn)", "RPMI-8226 leukemia", "> 100 µM"],
  ["Cc1sc2nc(-c3ccncc3)c(/C=N/N=C(N)N)n2c1C", "RPMI-8226 leukemia", "78.2 µM"],
  ["CC(C(=O)c1ccccc1)C(c1ccccc1)N1CCOCC1 (stereo not drawn)", "RPMI-8226 leukemia", "> 100 µM"],
  ["CCCCCCCCOC1C(O)C(O)C(O)C(O)C12CO2 (stereo not drawn)", "RPMI-8226 leukemia", "> 100 µM"],
  ["CC(C)(C)C(=O)c1c(C(F)(F)F)n([O-])c2ccccc2[n+]1=O", "RPMI-8226 leukemia", "0.246 µM"],
  ["CC(C)CC(NC(=O)c1cccc(O)c1O)C(=O)NCc1cc(CNC(=O)C(CC(C)C)NC(=O)c2cccc(O)c2O)cc(CNC(=O)C(CC(C)C)NC(=O)c2cccc(O)c2O)c1 (stereo not drawn)", "RPMI-8226 leukemia", "21.8 µM"],
  ["CC(C)(C)N=NNc1cn(C2OC(CO)C(O)C2O)c(=O)[nH]c1=O (stereo not drawn)", "RPMI-8226 leukemia", "42.7 µM"],
  ["CCCN1C(=O)CC(C)N(Cc2ccccc2Cl)C1=S (stereo not drawn)", "RPMI-8226 leukemia", "70.4 µM"],
  ["CC(=O)OC(/C=C/c1ccccc1)P1(=O)N(CC(C)(C)C)[C@@H]2CCCC[C@H]2N1CC(C)(C)C (stereo partly drawn)", "RPMI-8226 leukemia", "12.1 µM"],
  ["S=C(NC1=NCC(CN2CCN(c3ccccc3)CC2)O1)Nc1ccccc1 (stereo not drawn)", "RPMI-8226 leukemia", "> 100 µM"],
  ["CC(=O)OCCOCn1c2c(c(=S)[nH]c1=O)CCC2", "RPMI-8226 leukemia", "> 100 µM"],
  ["COC(=O)/C(=C\\Nc1cccc(C)n1)S(=O)(=O)c1ccc(C)cc1", "RPMI-8226 leukemia", "> 100 µM"],
  ["COC(=O)C(Cc1c[nH]c2ccccc12)NC(=O)C(Cc1c[nH]c2ccccc12)NC(=O)C(Cc1c[nH]c2ccccc12)NC(=O)C(Cc1c[nH]c2ccccc12)NC(=O)C(Cc1c[nH]c2ccccc12)NC(=O)C(Cc1c[nH]c2ccccc12)NC(=O)OC(C)(C)C (stereo not drawn) (Boc-WWWWWW-OMe; configuration not given here)", "RPMI-8226 leukemia", "> 100 µM"],
  ["COC(=O)[C@@H](C)C[C@H](Cc1ccccc1)NC(=O)c1csc(CC[C@H](C(C)C)N(C)C(=O)[C@@H](NC(=O)[C@H]2CCCCN2C)C(C)C)n1", "RPMI-8226 leukemia", "> 33.3 µM"],
  ["[Cl][Hg][Cl]", "RPMI-8226 leukemia", "> 60.3 µM"],
  ["CNC(=O)c1ccc(N2CCN(Cc3ccc4nc(C)c(=O)[nH]c4c3F)CC2)c(F)n1", "RPMI-8226 leukemia", "> 100 µM"],
  ["COc1cc(-c2cc3ncccc3c3nc(N)c4cccnc4c23)cc(OC)c1OC", "RPMI-8226 leukemia", "23.9 µM"],
  ["CN(C)CCCNC(=O)c1cc(NC(=O)c2cc(NC(=O)CCc3c[nH]c4ccccc34)cn2C)cn1C", "RPMI-8226 leukemia", "> 100 µM"],
  ["CCOC(=O)C1(C/C=C(/C)Cl)CCCC1=O (stereo not drawn)", "RPMI-8226 leukemia", "53.6 µM"],
  ["OCc1ccc(-c2ccc(-c3ccc(CO)o3)[se]2)o1", "RPMI-8226 leukemia", "> 100 µM"],
  ["Nc1nc(Cl)c(N)c(NCC2(CO)CC(OCc3ccccc3)C2)n1 (stereo not drawn)", "RPMI-8226 leukemia", "> 100 µM"],
  ["O=S(=O)(c1ccccc1)n1c2ccc(Br)cc2c2nc3ccccc3nc21", "RPMI-8226 leukemia", "> 100 µM"],
  ["O=C(O)CCCCCCC[C@H]1S[C@H]1CCCCCCO", "RPMI-8226 leukemia", "> 100 µM"],
  ["Oc1[nH]c2ccccc2c1N=Nc1ccccn1", "RPMI-8226 leukemia", "> 100 µM"],
  ["[N-]=[N+]=C1N=CN=C1c1ncn[nH]1", "RPMI-8226 leukemia", "38.8 µM"],
  ["O=S(=O)(Nc1ccccc1Cl)c1ccc(-c2cnc(C3CC3)o2)cc1", "RPMI-8226 leukemia", "22.7 µM"],
  ["FC(F)(F)c1nc2nc(Cl)c(Cl)nc2n1CCCN1CCOCC1", "RPMI-8226 leukemia", "> 100 µM"],
  ["OC(c1cc2ccccc2o1)c1cc2ccccc2s1 (stereo not drawn)", "RPMI-8226 leukemia", "> 10 µM"],
  ["CCc1cc(Cc2cc(Cl)c(NC(=O)C(=O)C3NC(=O)NC3=O)c(CC)c2)cc(Cl)c1NC(=O)C(=O)C1NC(=O)NC1=O (stereo not drawn)", "RPMI-8226 leukemia", "> 100 µM"],
  ["Cc1cccc2c(=O)c([Se]c3coc4c(C)cccc4c3=O)coc12", "RPMI-8226 leukemia", "> 100 µM"],
  ["CC(NC(=O)C(NC(=O)OC(C)(C)C)C(C)C)C(=O)NCC(=O)ON1C(=O)CCC1=O (stereo not drawn) (Boc-Val-Ala-Gly-OSu; configuration not given here)", "RPMI-8226 leukemia", "> 100 µM"],
  ["Nc1ccccc1C(=O)CC1OC(=O)c2ccccc21 (stereo not drawn)", "RPMI-8226 leukemia", "> 100 µM"],
  ["CC(=O)OCCCOCn1c(Cc2ccccc2)c(C)c(=O)[nH]c1=O", "RPMI-8226 leukemia", "> 100 µM"],
  ["O=C(CC(c1ccccc1)c1c(O)c2ccccc2oc1=O)c1ccccc1 (stereo not drawn)", "RPMI-8226 leukemia", "> 100 µM"],
  ["CC(=O)[C@@]1(C)CC2(CCN(C)CC2)OC1C (stereo partly drawn)", "RPMI-8226 leukemia", "> 100 µM"]
]}
